target: AR-VP16 (Homo sapiens); assay: AR-VP16 DNA Binding Assay, antagonist mode (HepG2 cells, 0.1 nM R1881)
Sequence (P10275 560-920 limits assumed): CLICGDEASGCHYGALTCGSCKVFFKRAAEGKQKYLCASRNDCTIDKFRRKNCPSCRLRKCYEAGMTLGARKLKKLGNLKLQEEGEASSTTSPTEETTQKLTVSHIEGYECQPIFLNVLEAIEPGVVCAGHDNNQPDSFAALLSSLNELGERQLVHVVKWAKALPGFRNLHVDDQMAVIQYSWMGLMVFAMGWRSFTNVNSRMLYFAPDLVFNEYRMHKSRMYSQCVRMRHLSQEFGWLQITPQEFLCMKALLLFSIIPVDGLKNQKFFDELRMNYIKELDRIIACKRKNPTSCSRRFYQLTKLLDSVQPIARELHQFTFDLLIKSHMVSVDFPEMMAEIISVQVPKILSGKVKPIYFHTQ
pIC50: −log10 of the molar value.
quantityMeasured: pIC50

CN1CCN(CCCc2ccc(N3C(=S)N(c4cnc(C#N)c(C(F)(F)F)c4)C(=O)C34CCC4)cc2)CC1
> 6.00
N#Cc1ncc(N2C(=O)C3(CCC3)N(c3ccc(OCCc4cnccn4)c(F)c3)C2=S)cc1C(F)(F)F
> 6.00
CN1CCN(CCCOc2ccc(N3C(=S)N(c4cnc(C#N)c(C(F)(F)F)c4)C(=O)C34CCC4)c(F)c2)CC1
> 6.00
Cc1cc(N2C(=O)C(C)(C)N(c3ccc(O)cc3)C2=S)cnc1C#N
< 6.00
N#Cc1ncc(N2C(=O)C3(CCC3)N(c3ccc4cnccc4c3)C2=S)cc1C(F)(F)F
> 6.00
N#Cc1ccc(N2C(=O)C3(CCC3)N(c3ccc(O)c(F)c3)C2=S)c2cccnc12
> 6.00
Cc1cccc(N2C(=S)N(c3cnc(C#N)c(C(F)(F)F)c3)C(=O)C23CCC3)c1
> 6.00
Cc1ccc(N2C(=S)N(c3cc(C#N)n(C)c3)C(=O)C23CCC3)cc1
< 6.00

Bench note: what pIC50 did `CNC(=O)c1ccc(N2C(=S)N(c3cnc(C#N)c(C)c3)C(=O)C23CCC3)cc1Cl` show? > 6.00

What does the record list as pIC50 for `N#Cc1ncc(N2C(=O)C3(CCC3)N(c3ccc(C(=O)Nc4cccnc4)c(F)c3)C2=S)cc1C(F)(F)F` ? > 6.00

For the compound `CNC(=O)c1ccc(N2C(=S)N(c3cnc(C#N)c(Cl)c3)C(=O)C23CCC3)cc1F` , what pIC50 is on record? > 6.00

// returns reported pIC50 for input `Cc1ccc(CCN2C(=S)N(c3cnc(C#N)c(C(F)(F)F)c3)C(=O)C23CCC3)cc1` > 6.00

Look up pIC50 for this compound: `N#Cc1ncc(N2C(=O)C3(CCC3)N(c3cccc(Oc4ccccc4)c3)C2=S)cc1C(F)(F)F` < 6.00

Quick one: pIC50 for `Cc1ccc(-c2ccc(N3C(=S)N(c4cnc(C#N)c(C)c4)C(=O)C34CCC4)cc2)o1` ? > 6.00

// query pIC50 value for entry `N#Cc1ncc(N2C(=O)C3(CCC3)N(c3ccc(F)c(C(=O)NCCCN4CCCC4)c3)C2=S)cc1C(F)(F)F` > 6.00

Consider the compound shown here: `Cc1ccc(N2C(=S)N(c3ccc(C#N)c4ccccc34)C(=O)C23CCC3)cc1` What is its recorded pIC50? > 6.00
